target: UniProtKB Q06124; test: SHP2 Allosteric Inhibition Assay: The inhibition of SHP2 by compounds of the invention (concentrations varying from 0.00005-10 μM) was monitored using an assay in which 0.2 nM of SHP2 was incubated with 0.5 μM of Activating Peptide 1 (sequence: H2N LN(pY)IDLDLV(dPEG8)LST(pY)ASINFQK-amide) or Activating Peptide 2 (sequence: H2N-LN(pY)AQLWHA(dPEG8)LTI(pY)ATIRRF-amide). After 30-60-minutes incubation at 25° C., the surrogate substrate DiFMUP (Invitrogen, Cat #D6567) was added to the reaction and activity was determined by a kinetic read using a microplate reader (Envision, Perkin-Elmer or Spectramax M5, Molecular Devices). The excitation and emission wavelengths were 340 nm and 450 nm, respectively. Initial rates were determined from a linear fit of the data, and the inhibitor dose response curves were analyzed using normalized IC50 regression curve fitting with control based normalization.
Sequence (Q06124 whole entry): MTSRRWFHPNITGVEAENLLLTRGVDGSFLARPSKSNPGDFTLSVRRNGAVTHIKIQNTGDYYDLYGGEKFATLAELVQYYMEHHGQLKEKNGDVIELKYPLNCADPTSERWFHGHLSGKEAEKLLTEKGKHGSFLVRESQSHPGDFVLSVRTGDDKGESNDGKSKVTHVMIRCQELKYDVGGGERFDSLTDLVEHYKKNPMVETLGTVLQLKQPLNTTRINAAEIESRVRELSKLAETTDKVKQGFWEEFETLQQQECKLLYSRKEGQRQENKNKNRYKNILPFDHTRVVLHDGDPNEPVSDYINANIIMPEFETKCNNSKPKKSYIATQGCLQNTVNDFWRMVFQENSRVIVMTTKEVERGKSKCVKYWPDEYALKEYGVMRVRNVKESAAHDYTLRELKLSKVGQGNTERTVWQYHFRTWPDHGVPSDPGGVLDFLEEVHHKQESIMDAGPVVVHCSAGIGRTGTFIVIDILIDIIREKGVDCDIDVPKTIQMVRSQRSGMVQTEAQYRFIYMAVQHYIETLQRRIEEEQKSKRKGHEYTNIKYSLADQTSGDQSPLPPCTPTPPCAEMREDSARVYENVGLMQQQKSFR

# Smiles Record, IC50
data = [
    ("Cc1nc(N2CCC3(CC2)CO[C@@H](C)[C@H]3N)n2ccnc2c1-c1ccc2nccnc2c1", "< 50 nM"),
]
